These measurements were taken from patent US20090143279A1.

Please respond with reported MTT for every item in the list.
tested on: cellular dehydrogenase activity; conditions: composite Z-score vs DMSO; Conc 20 μM

Item: `COc1ccc2oc3ccccc3c(=O)c2c1` | MTT: −1.044

Consider `C[C@]12C=CC(=O)C=C1CC[C@@H]1[C@@H]2CC[C@]2(C)C(=O)CC[C@@H]12` . Its measured MTT is −0.500

Reported MTT ( CCOc1nc2cccc(C(=O)OC(C)OC(=O)OC3CCCCC3)c2n1Cc1ccc(-c2ccccc2-c2nn[nH]n2)cc1 (stereo not shown) ) = −1.116

// sample COC(=O)CCC(=O)O[C@H]1CC[C@@]2(C)[C@@H](CC[C@@H]3[C@@H]2C(=O)C(O)[C@]2(C)[C@@H]4[C@H](C[C@@H]32)O[C@]2(CC[C@@H](C)CO2)[C@H]4C)C1 (stereo partly shown) , its MTT was −1.387

For reference, reported MTT for O[C@H]1[C@H]2c3cc4c(cc3CN3CCC(=C[C@@H]1O)[C@H]23)OCO4 [Lycorine, reference compound] stands at −4.612

Record summary for `C[C@]12CCC(=O)C=C1CC[C@@H]1[C@@H]2C(=O)C[C@@]2(C)[C@H]1CC[C@]2(O)C(=O)CO` : reported MTT = −0.146

# MTT (molecule: `CCNC(=O)CC[C@H](N)C(=O)O` ) is −0.851

====

system: mtOXPHOS transcripts; format: cell-based, mouse; conditions: composite Z-score vs mock-treated (DMSO) wells; concentration of each compound in μM
Structures can show the parent of a compound that is named as a salt. Where a SMILES comes first, the peptide text is derived from it. The star is where a group is joined. Tfa = O=C(C(F)(F)F)*
Exercise: for every item that follows, state its recorded mitoOX.

The reported mitoOX of the compound `C/C1=C2/[N-][C@H]([C@H](CC(N)=O)[C@@]2(C)CCC(=O)NC[C@@H](C)OP(=O)([O-])O[C@H]2[C@@H](O)[C@@H](n3cnc4cc(C)c(C)cc43)O[C@@H]2CO)[C@]2(C)N=C(/C(C)=C3N=C(/C=C4N=C1[C@@H](CCC(N)=O)C\4(C)C)[C@@H](CCC(N)=O)[C@]\3(C)CC(N)=O)[C@@H](CCC(N)=O)[C@]2(C)CC(N)=O.[Co]` was −0.393

# mitoOX of CN[C@H]1C[C@@H](N)[C@H](O)[C@@H](O[C@@H]2O[C@H](CO)[C@H](O)[C@@H]3OC4(O[C@H]23)O[C@H]([C@@H](N)CO)[C@H](O)[C@H](O)[C@H]4O)[C@@H]1O (stereo partly shown) = −0.054

Consider `NC[C@H]1O[C@H](O[C@H]2[C@H](O)[C@@H](O[C@H]3O[C@H](CO)[C@@H](O)[C@H](N)[C@H]3O)[C@H](N)C[C@@H]2N)[C@H](O)[C@@H](O)[C@@H]1O` . Its measured mitoOX is −0.323

Briefly, mitoOX measured for `COc1cc2occ(-c3cc4c(cc3OC)OCO4)c(=O)c2cc1OC` : −0.215

Please fill in: mitoOX reported for CC(=O)O.CSC(=N)NCCC[C@H](N)C(=O)O [S-methyl-L-thiocitrulline acetate] = 0.173

Input C=Cc1c(C)c2cc3nc(c4c5[n-]c(cc6nc(cc1[n-]2)C(C)=C6CC)c(C)c5C(=O)[C@@H]4C(=O)OC)[C@@H](CCC(=O)O)[C@@H]3C.[Mg+2] [chlorophyllide] . Output mitoOX: 0.224

Per the records, this compound ( CC(C)[C@H](NC(=O)[C@H](Cc1ccc(O)cc1)NC(=O)[C@@H](NC(=O)C(F)(F)F)C(C)C)C(=O)O [TFA-Val-Tyr-Val-OH] (Tfa-Val-Tyr-Val-OH) ) has mitoOX equal to −0.008

====

test system: cellular dehydrogenase activity; details: composite Z-score vs mock-treated (DMSO) wells; Conc 20 μM
Metric: MTT
Form: value (number only, do not type unit).

Here COc1cc2c(cc1OC)-c1c(oc3c4c(ccc3c1=O)OC(C(C)C)C4)CO2 (stereo not shown) [dehydrodihydrorotenone, reference compound] was tested on cellular dehydrogenase activity, and its MTT came to −3.034

Note to self: MTT of `COc1ccc(/C=C/c2cc(O)cc(O)c2)cc1` with cellular dehydrogenase activity was −1.056

Entry CC(=O)O[C@@H]1CC(=O)[C@@]2(C)C(CC(=O)[C@]3(C)C2CC[C@@]2(C)[C@H](c4ccoc4)OC(=O)C4OC423)C1(C)C (stereo partly shown) ; assay system cellular dehydrogenase activity; MTT recorded at −0.142

// MTT (cellular dehydrogenase activity) for C[C@@H]1C(=O)O[C@H]2[C@H]1CC[C@@]1(C)C=CC(=O)[C@@]3(C)O[C@@]213 [epoxy (4,5alpha)-4,5-dihydrosantonin] = 0.041

# value of MTT, cellular dehydrogenase activity, item CC(=O)O[C@H]1C[C@@H](OC(C)=O)C(C)(C)C2CC(=O)[C@]3(C)C(CC[C@@]4(C)[C@H](c5ccoc5)OC(=O)[C@H]5O[C@]543)[C@]21C (stereo partly shown) = −0.095

For `COc1cc2c(cc1OC)[C@@H]1C(=O)c3ccc(OC)c(CC=C(C)C)c3O[C@@H]1CO2` on cellular dehydrogenase activity, measured MTT was −3.898

Per the reported cellular dehydrogenase activity data, CC(C)=CCCC1(C)C=Cc2c(O)c3c(c(CC=C(C)C)c2O1)OC12C(CC4CC1C(C)(C)OC2(C/C=C(/C)C(=O)O)C4O)C3=O (stereo not shown) [tetrahydrogambogic acid] has MTT of −1.090

Tested system cellular dehydrogenase activity; MTT recorded for C=C1C2CC[C@@]3(C)[C@H](c4ccoc4)OC(=O)C[C@]13O[C@H]1CC(=O)C(C)(C)[C@H](C(O)C(=O)OC)[C@@]21C (stereo partly shown) [6-hydroxyangolensic acid methyl ester] was −0.490

Tested on cellular dehydrogenase activity, the item `COC(=O)c1cccc2cc(OC)c(OC)c(OC)c2c1=O` showed MTT equal to −2.317

Measured MTT (cellular dehydrogenase activity), entry CC(C)=CCc1c(O)cc(C)oc1=O [2-isoprenyl-3-hydroxy-5-methyl-a-pyrone] : 0.055

Item `COc1cc(O)c2c(=O)cc(C)oc2c1CC=C(C)C` ; assay system cellular dehydrogenase activity; MTT reported as −1.476

The reported MTT value, cellular dehydrogenase activity, for `CCN1CCN(C(=O)N[C@@H](C(=O)N[C@@H]2C(=O)N3C(C(=O)O)=C(CSc4nnnn4C)CS[C@H]23)c2ccc(O)cc2)C(=O)C1=O` reads −0.793

Reported cellular dehydrogenase activity MTT for item C=CC(C1=CC(=O)C(OC)=CC1=O)c1ccc(OC)cc1 (stereo not shown) was −2.648

====

tested on: C2C12 myotubes; details: 20 μM; composite Z-score vs DMSO
Where a SMILES comes first, the peptide text is derived from it. Bridges are numbered along the chain shown (N, C = ends). [ ]: non-standard residue; d: D form. The star is where a group is joined. Ileψ(thiazoline)Cys = CC[C@H](C)[C@H](N)C1=N[C@H](C(=O)*)CS1; dOrn = NCCC[C@@H](N)C(=O)O
Field: Viability. Provide a value for each of the compounds that follow.

Notebook: CCN(CC)CCNC(=O)COc1ccc(OC)cc1 [mefexamide] , Viability read as −2.120

# compound CCCCN1CCCCC1C(=O)Nc1c(C)cccc1C (centres unmarked) ; its Viability = −1.202

compound CCCN(CCC)C(=O)C(CCC(=O)O)NC(=O)c1ccccc1 (centres unmarked) [proglumide] , Viability observed: −0.750

Lab note: measured Viability of `CCOC(=O)[C@H](CCc1ccccc1)N[C@@H](C)C(=O)N1Cc2ccccc2C[C@H]1C(=O)O` was 0.034

Kindly note the recorded Viability for CC(COc1ccccc1)N(CCCl)Cc1ccccc1 (centres unmarked) , which is −0.906

Documented Viability of CC(=O)Oc1c(C)c(C)c2c(c1C)CCC(C)(CCCC(C)CCCC(C)CCCC(C)C)O2 (stereo not drawn) [alpha-tochopheryl acetate] : −0.957

Reported Viability ( CC(C)(C)NCC(O)c1ccccc1Cl (centres unmarked) ) = −0.239

What the record says about `C=CCc1ccc(O)c(OC)c1` : Viability is −0.943

`Cc1cc(C2CCCCC2)n(O)c(=O)c1` yielded Viability of −1.409

Consider `COc1c2occc2cc2ccc(=O)oc12` . Its measured Viability is 0.416

The compound identified as `NC(=O)c1ccc[n+]([C@@H]2O[C@H](COP(=O)([O-])OP(=O)(O)OC[C@H]3O[C@@H](n4cnc5c(N)ncnc54)[C@H](OP(=O)(O)O)[C@@H]3O)[C@@H](O)[C@H]2O)c1` registered its Viability at −0.562

Summary for this compound, `Cc1cc(=O)[nH]c(=S)[nH]1` : Viability is −0.235

// sample `CC(C)(O)[C@@H]1[C@H]2OC(=O)[C@@H]1[C@]1(O)C[C@H]3O[C@]34C(=O)O[C@H]2[C@]14C` , its Viability was −0.278

Viability measured on `Nc1ccc(C(=O)NCC(=O)O)cc1` = 0.597

The compound listed as CC[C@H](C)[C@H](N)C1=N[C@H](C(=O)N[C@@H](CC(C)C)C(=O)N[C@H](CCC(=O)O)C(=O)N[C@H](C(=O)N[C@H]2CCCCNC(=O)[C@H](CC(N)=O)NC(=O)[C@@H](CC(=O)O)NC(=O)[C@H](Cc3cnc[nH]3)NC(=O)[C@@H](Cc3ccccc3)NC(=O)[C@H]([C@@H](C)CC)NC(=O)[C@@H](CCCN)NC2=O)[C@@H](C)CC)CS1 [bacitracin] ({Ileψ(thiazoline)Cys}-L[dE]IK[dOrn]I[dF]H[dD]N; lactam 4-C) shows Viability equal to −0.312

Summary for this compound, `COc1cc2ccc(=O)oc2cc1O` : Viability is 0.675

In plain terms, O=C(COc1ccc(Cl)cc1)N1CCN(Cc2ccc3c(c2)OCO3)CC1 [fipexide] has a documented Viability of 0.721
